Parameter EC50: see the listing below.
System: Streptococcus
RUN DESCRIPTION: GAS UMAA2166 growth inhibition – luminescence, BacTiterGlo, counter-screen for streptokinase expression inhibitor project, dose response (AID 1915);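 note: potency for reduction of bacterial viability or growth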
Assay type: functional, organism-based
APPLIED CONDITIONS: read-out: EC50
Activity calls are given as the source filed them. Cut-off read from the data, not from the text of the source: actives have a measured EC50 and inactives only a lower limit.
RESULT TYPE: EC50

>>> observed("O=c1c2cc(Cl)ccc2nc(-c2ccc(Cl)c(Cl)c2)n1O")
"0.949 µM (active)"
>>> observed("Cc1cc(O)c(C(C)C)cc1C1(c2cc(C(C)C)c(O)cc2C)OC(=O)c2ccccc21")
"3.87 µM (active)"
>>> observed("O=C(/C=C/c1ccco1)NC(=S)Nc1ccc(N2CCOCC2)c(Cl)c1")
"54.4 µM (active)"
>>> observed("Cc1cc(NC(=O)CC2CCCC2)n(-c2nc3ccccc3[nH]2)n1")
"> 150 µM (not active)"
